Molecular target: Estrogen receptor (Homo sapiens, UniProt P03372)
Sequence (P03372 whole entry): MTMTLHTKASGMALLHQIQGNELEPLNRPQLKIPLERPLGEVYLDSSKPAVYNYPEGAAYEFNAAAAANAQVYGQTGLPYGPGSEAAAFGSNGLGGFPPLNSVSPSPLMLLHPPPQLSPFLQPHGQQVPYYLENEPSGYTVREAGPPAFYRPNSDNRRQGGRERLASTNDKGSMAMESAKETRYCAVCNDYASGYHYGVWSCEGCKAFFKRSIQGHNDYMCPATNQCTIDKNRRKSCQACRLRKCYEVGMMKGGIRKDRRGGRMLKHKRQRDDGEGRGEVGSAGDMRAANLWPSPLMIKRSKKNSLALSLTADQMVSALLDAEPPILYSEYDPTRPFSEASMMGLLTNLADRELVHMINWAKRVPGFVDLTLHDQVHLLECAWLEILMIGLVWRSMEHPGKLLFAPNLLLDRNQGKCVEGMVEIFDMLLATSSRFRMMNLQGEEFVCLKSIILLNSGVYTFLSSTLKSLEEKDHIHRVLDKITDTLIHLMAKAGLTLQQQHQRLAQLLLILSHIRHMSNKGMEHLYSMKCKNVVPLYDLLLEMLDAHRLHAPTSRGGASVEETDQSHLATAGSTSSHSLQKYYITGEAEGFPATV
Assay: Binding affinity for Estrogen receptor alpha
measure-name: pEC50
Give bare numbers, as −log10 of the molar value.

Below: 3 molecules and their reported pEC50.
smiles_data=O=c1c(-c2ccc(O)cc2)c(Sc2ccc(O)cc2)oc2cc(O)ccc12 measure_name=pEC50 observed_measurement=5.73
smiles_data=O=c1c(-c2ccc(O)cc2)c(Oc2ccc(O)cc2)oc2cc(O)ccc12 measure_name=pEC50 observed_measurement=5.76
smiles_data=O=c1c(-c2ccc(O)cc2)c(Oc2ccc(OCCN3CCCCC3)cc2)oc2cc(O)ccc12 measure_name=pEC50 observed_measurement=6.70

# context switch: different molecule, same pEC50
Documented pEC50 of O=c1c(-c2ccc(O)cc2)c(Sc2ccc(OCCN3CCCCC3)cc2)oc2cc(O)ccc12 : 6.11
